Data origin: the MegaScale stability set (Tsuboyama et al. 2023)

B1: 2M8U (parent)
chain: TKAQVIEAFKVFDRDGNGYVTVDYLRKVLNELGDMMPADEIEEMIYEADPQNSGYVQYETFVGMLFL

Variants of: B1
Test: folding stability dG (cDNA display proteolysis); higher = more stable
Conditions: PBS, room temperature
The reader will find reported folding stability dG values listed item by item below.
Express it in kcal/mol; write the number only.

Below are worked cases with known answers.
P50F    3.05
A8F    3.23
M44I    3.05

Consider R14D . Its measured folding stability dG is 3.5

Consider L65G . Its measured folding stability dG is 2.19

Consider L32K . Its measured folding stability dG is 2.5

Consider F9M . Its measured folding stability dG is 3.82

Consider Q57T . Its measured folding stability dG is 2.41

Consider A48E . Its measured folding stability dG is 2.78

Consider M35R . Its measured folding stability dG is 3.02

Consider L29N . Its measured folding stability dG is 1.86

Consider E59S . Its measured folding stability dG is 3.05

Consider G16V . Its measured folding stability dG is 2.42

Consider D23G . Its measured folding stability dG is 3.56

Consider F9P . Its measured folding stability dG is 2.32

Consider K2D . Its measured folding stability dG is 2.24

Consider I45A . Its measured folding stability dG is 2.37

Consider D15W . Its measured folding stability dG is 2.76

Consider F66W . Its measured folding stability dG is 3.19
